- METHOD DESCRIPTION: Volume of distribution at steady state in Sprague-Dawley rat at 2 mg/kg, iv and 3 mg/kg, po
- Assay type: ADME, organism-based
- MEASUREMENT CONTEXT: in vivo, read-out: Vdss
PROPERTY LABEL: Vd (L/kg)

INSERT INTO measurements (compound_string, result_unit, measured) VALUES
  ('CC(C)(CO)NC(=O)c1nn(-c2ccc(F)cc2F)c2c1C[C@H]1C[C@@H]21', 'L/kg', 0.851);

* * *

- METHOD DESCRIPTION: Drug uptake in Sprague-Dawley rat brain at 3 mg/kg, po after 2 hrs
- Type: ADME, organism-based
- Design: dose 3 mg/kg, route oral
- MEASUREMENT CONTEXT: read-out: Drug uptake
PROPERTY LABEL: concentration at 2 h (ng/g)

INSERT INTO measurements (compound_string, property_label, result_unit, measured) VALUES
  ('CC(C)(CO)NC(=O)c1nn(-c2ccc(F)cc2F)c2c1C[C@H]1C[C@@H]21', 'concentration at 2 h', 'ng/g', 623);
